target: Recombinant human JARID1B/KDM5B (Homo sapiens); construct: purchased Active Motif 31432; host or cells: Sf9 insect cells; assay: LANCE Ultra TR-FRET JARID1B (KDM5B) demethylase inhibition assay; assay type: biochemical; details: 0.1 uM of test-compounds, FLAG-JARID1B, 500 nM biotinylated H3K4me3 peptide substrate, 30 min at room temperature
measure: inhibition at 0.1 µM

>  <compound>
O=c1[nH]c(COc2ccc(Cl)cc2Cl)nc2c(-c3csc(NCCO)n3)nccc12 [Compound 135]

>  <measure>
inhibition at 0.1 µM

>  <val>
20 to 50%

$$$$

Task item: Give its inhibition at 0.1 µM value. Item: O=c1[nH]c(COc2ccc(F)c(Cl)c2)nc2c(-c3cccc(N4CCOCC4)n3)nccc12 [Compound 116]
Reply: < 20%

Task item: Give its inhibition at 0.1 µM value. Item: Nc1nc(-c2nccc3c(=O)[nH]c(COc4ccc(F)c(Cl)c4)nc23)cs1 [Compound 104]
Reply: 20 to 50%

Task item: Give its inhibition at 0.1 µM value. Item: Nc1ccn(-c2nccc3c(=O)[nH]c(COc4ccc(Cc5ccccc5)cc4)nc23)n1 [Compound 69]
Reply: < 20%

Task item: Give its inhibition at 0.1 µM value. Item: O=c1[nH]c(COc2ccc(F)c(Cl)c2)nc2c(-c3csc(NCC4CCN(Cc5ccccc5)CC4)n3)nccc12 [Compound 96]
Reply: < 20%

Task item: Give its inhibition at 0.1 µM value. Item: COCCN1CCC(CNc2nc(-c3nccc4c(=O)[nH]c(COc5ccc(F)c(Cl)c5)nc34)cs2)CC1 [Compound 101]
Reply: 20 to 50%

Task item: Give its inhibition at 0.1 µM value. Item: O=c1[nH]cnc2c(-c3csc(NCC4CCNCC4)n3)nccc12 [Compound 56]
Reply: ≥ 50%

Task item: Give its inhibition at 0.1 µM value. Item: CN1CCN(Cc2ccc(-c3cn(-c4nccc5c(=O)[nH]cnc45)nc3N)cc2)CC1 [Compound 33]
Reply: 20 to 50%

====

biological target: Recombinant human JARID1B/KDM5B (Homo sapiens, UniProt Q9UGL1); construct: purchased Active Motif 31432; host or cells: Sf9 insect cells; test: LANCE Ultra TR-FRET JARID1B (KDM5B) demethylase inhibition assay; assay type: biochemical; conditions: 0.1 uM of test-compounds, FLAG-JARID1B, 500 nM biotinylated H3K4me3 peptide substrate, 30 min at room temperature
Sequence (Q9UGL1 whole entry): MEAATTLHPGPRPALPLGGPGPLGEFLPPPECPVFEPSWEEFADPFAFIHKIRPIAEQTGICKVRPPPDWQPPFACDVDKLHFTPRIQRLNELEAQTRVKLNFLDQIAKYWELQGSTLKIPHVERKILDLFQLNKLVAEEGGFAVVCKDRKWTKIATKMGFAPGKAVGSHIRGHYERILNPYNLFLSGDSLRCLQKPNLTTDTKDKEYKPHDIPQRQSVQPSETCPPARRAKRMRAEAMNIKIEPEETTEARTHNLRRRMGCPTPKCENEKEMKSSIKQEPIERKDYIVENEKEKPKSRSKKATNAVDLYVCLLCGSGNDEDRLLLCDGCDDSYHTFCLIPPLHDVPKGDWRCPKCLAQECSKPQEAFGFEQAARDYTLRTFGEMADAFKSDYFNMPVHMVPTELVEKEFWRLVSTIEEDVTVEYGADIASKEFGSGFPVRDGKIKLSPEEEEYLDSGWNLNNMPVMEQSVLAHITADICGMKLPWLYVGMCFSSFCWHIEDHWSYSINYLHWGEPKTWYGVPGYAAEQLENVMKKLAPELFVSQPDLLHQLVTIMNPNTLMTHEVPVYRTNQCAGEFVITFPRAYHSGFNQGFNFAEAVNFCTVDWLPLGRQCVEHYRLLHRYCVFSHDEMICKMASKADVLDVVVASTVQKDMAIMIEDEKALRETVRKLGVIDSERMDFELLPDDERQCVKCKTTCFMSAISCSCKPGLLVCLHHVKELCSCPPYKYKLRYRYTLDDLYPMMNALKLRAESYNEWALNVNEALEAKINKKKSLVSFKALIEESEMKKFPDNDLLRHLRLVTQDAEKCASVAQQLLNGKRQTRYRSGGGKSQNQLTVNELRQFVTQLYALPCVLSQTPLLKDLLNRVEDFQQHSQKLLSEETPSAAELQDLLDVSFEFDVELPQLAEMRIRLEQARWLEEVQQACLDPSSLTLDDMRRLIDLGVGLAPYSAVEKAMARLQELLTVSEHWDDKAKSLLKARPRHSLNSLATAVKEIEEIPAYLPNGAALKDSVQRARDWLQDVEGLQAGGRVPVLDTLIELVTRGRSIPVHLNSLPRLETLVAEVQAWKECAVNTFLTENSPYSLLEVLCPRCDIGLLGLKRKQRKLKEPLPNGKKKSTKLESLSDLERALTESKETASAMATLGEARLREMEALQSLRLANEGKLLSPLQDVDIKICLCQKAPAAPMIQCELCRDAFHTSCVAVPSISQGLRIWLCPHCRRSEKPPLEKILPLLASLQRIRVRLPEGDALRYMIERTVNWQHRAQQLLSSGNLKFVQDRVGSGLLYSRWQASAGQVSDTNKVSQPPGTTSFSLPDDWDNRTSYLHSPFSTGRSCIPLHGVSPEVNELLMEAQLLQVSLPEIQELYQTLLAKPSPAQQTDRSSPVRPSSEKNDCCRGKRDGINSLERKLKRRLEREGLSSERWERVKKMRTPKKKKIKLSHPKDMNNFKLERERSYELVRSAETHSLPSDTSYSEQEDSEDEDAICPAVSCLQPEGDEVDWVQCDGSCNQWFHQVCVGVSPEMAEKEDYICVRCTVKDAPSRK
measure: inhibition at 0.1 µM

>  <compound>
O=c1[nH]c(COc2ccc(F)c(Cl)c2)nc2c(-c3csc(NCCCO)n3)nccc12

>  <measure>
inhibition at 0.1 µM

>  <val>
≥ 50%

$$$$
>  <compound>
O=c1[nH]c(COc2ccc(F)c(Cl)c2)nc2c(-c3csc(NCC4CCCO4)n3)nccc12 (stereo not shown)

>  <measure>
inhibition at 0.1 µM

>  <val>
≥ 50%

$$$$
>  <compound>
CC(c1ccccc1)c1nc2c(-c3csc(NCCO)n3)nccc2c(=O)[nH]1 (stereo not shown)

>  <measure>
inhibition at 0.1 µM

>  <val>
< 20%

$$$$

Continue with the compound presented below.
Task item: Give its inhibition at 0.1 µM value. Item: O=c1[nH]c(COc2ccc(C3CCCC3)cc2)nc2c(-c3csc(NCCO)n3)nccc12
Reply: < 20%

====

target: Recombinant human JARID1B/KDM5B (Homo sapiens); construct: purchased Active Motif 31432; host or cells: Sf9 insect cells; test: LANCE Ultra TR-FRET JARID1B (KDM5B) demethylase inhibition assay; format: biochemical; conditions: 0.1 uM of test-compounds, FLAG-JARID1B, 500 nM biotinylated H3K4me3 peptide substrate, 30 min at room temperature
measure: inhibition at 0.1 µM

Consider the reported inhibition at 0.1 µM for these compounds:
>  <structure_smiles>
Nc1ncc(-c2nccc3c(=O)[nH]c(COc4ccc(Cc5ccccc5)cc4)nc23)s1

>  <inhibition at 0.1 µM>
< 20%

$$$$
>  <structure_smiles>
O=c1[nH]cnc2c(-n3cc(-c4cnn(Cc5ccccc5)c4)cn3)nccc12

>  <inhibition at 0.1 µM>
< 20%

$$$$
>  <structure_smiles>
O=c1[nH]c(COc2ccc(Oc3ccccc3)cc2)nc2c(-c3csc(NCCO)n3)nccc12

>  <inhibition at 0.1 µM>
< 20%

$$$$

Continue with the compound presented below.
Task item: Give its inhibition at 0.1 µM value. Item: O=c1[nH]cnc2c(-c3csc(NCC4CCN(Cc5ccccc5)CC4)n3)nccc12
Reply: ≥ 50%

Origin of the recorded values: patent US20170057955A1
